The measurements presented in this section are drawn from ChEMBL document CHEMBL1671768.

System: Plasmodium falciparum
Experiment: Antimalarial activity against Plasmodium falciparum at the ring stage infected in human erythrocytes assessed as growth inhibition by microscopic analysis using giemsa staining
Format: functional, organism-based
pIC50: −log10 of the molar value.
metric.name: pIC50

# compound, recorded.value
data = [
    ("Clc1ccc2c(N3CCN(CCCN4CCN(c5ccnc6cc(Cl)ccc56)CC4)CC3)ccnc2c1 [PIPERAQUINE]", 7.93),
    ("COc1ccc2nc3cc(Cl)ccc3c(Nc3cc(CN4CCCC4)c(O)c(CN4CCCC4)c3)c2n1 [PYRONARIDINE]", 8.80),
    ("CCN(CC)Cc1cc(Nc2ccnc3cc(Cl)ccc23)ccc1O", 8.09),
]
